measured-target: IRAK4 (Homo sapiens)
Construct: endogenous in cells; host or cells: THP-1 cells
Sequence (Q9NWZ3 1-460): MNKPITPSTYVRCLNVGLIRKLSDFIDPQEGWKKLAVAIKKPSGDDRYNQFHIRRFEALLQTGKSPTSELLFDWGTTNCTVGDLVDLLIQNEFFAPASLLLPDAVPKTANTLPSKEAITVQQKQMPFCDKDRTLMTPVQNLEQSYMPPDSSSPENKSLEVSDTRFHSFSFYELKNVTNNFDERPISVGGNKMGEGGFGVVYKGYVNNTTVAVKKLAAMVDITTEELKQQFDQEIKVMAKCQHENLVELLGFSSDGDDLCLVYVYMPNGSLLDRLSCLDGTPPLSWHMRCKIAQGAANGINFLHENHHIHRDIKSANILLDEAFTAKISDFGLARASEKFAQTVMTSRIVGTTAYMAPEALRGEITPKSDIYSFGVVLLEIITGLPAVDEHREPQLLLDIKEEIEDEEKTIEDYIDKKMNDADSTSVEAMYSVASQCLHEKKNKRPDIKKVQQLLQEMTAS
test-description: ALE THP1 HTRF (Advanced Lipoxidation End Product THP1 Homogeneous Time Resolved Fluorescence)
Format: cell-based
study-conditions: THP1 cells
Entries and their ALE THP1 HTRF YMIN
# unit: % | format: bare number

CN(C(=O)C1CCN(c2ccc3c(c2)C(=O)N(C2CCC(=O)NC2=O)C3)CC1)C1CCC(n2cc(-c3cnc(-n4ncc5cc(C#N)cnc54)cc3NC3CCCC3)nn2)CC1 (stereo not drawn) [P-19] = 38.0
CC(F)(F)CNc1cc(-n2ncc3cc(C#N)cnc32)ncc1C(=O)NC1CCC(CCN2CCN(c3ccc(C4CCC(=O)NC4=O)cc3)CC2)CC1 (stereo not drawn) [P-65] = 7.3
N#Cc1cnc2c(cnn2-c2cc(NC3CC3)c(C(=O)N[C@H]3CC[C@H](OCC4CCN(c5ccc(C6CCC(=O)NC6=O)cc5)CC4)CC3)cn2)c1 (stereo partly drawn) [P-88] = 64.5

Let me know recorded ALE THP1 HTRF YMIN for N#Cc1cnc2c(cnn2-c2cc(NC3CCCC3)c(C(=O)NC3CCC(C(=O)Nc4ccc(C(=O)Nc5ccc(C6CCC(=O)NC6=O)cc5)cc4)CC3)cn2)c1 (stereo not drawn) [P-20] , thanks.
30.9

Let me know recorded ALE THP1 HTRF YMIN for N#Cc1cnc2c(cnn2-c2cc(NC3CCCC3)c(C(=O)NC3CCC(CC(=O)N4CCN(c5ccc(C6CCC(=O)NC6=O)cc5)CC4)CC3)cn2)c1 (stereo not drawn) [P-23] , thanks.
34.8

Let me know recorded ALE THP1 HTRF YMIN for N#Cc1cnc2c(cnn2-c2cc(NC3CCCC3)c(C(=O)NC3CCC(CN4CCC(C(=O)Nc5ccc(C6CCC(=O)NC6=O)cc5)C(F)(F)C4)CC3)cn2)c1 (stereo not drawn) [P-46] , thanks.
31.5

---

measured-target: IRAK4 (Homo sapiens)
Construct: endogenous in cells; host or cells: THP-1 cells
test-description: ALE THP1 HTRF (Advanced Lipoxidation End Product THP1 Homogeneous Time Resolved Fluorescence)
Type: cell-based
study-conditions: THP1 cells
Entries and their ALE THP1 HTRF YMIN
# unit: % | format: bare number

C[C@H](C#N)Nc1cc(-n2ccc3cnc(N)nc32)ncc1C(=O)N[C@H]1CC[C@H](CCN2CCN(c3ccc(C4CCC(=O)NC4=O)cc3)CC2)CC1 (stereo partly drawn) = 8.4

Find ALE THP1 HTRF YMIN for C[C@@H]1CN(c2ccc(C3CCC(=O)NC3=O)cc2)C[C@@H](C)N1CCC1CCC(NC(=O)c2cnc(-n3ncc4cc(C#N)cnc43)cc2NC2CCCC2)CC1 (stereo partly drawn) on IRAK4 (Homo sapiens) and write it down.
19.3

Find ALE THP1 HTRF YMIN for N#Cc1cnc2c(cnn2-c2cc(NC3CC3)c(C(=O)NC3CCC(CCN4CCN(c5ccc([C@@H]6CCC(=O)NC6=O)cc5)CC4)CC3)cn2)c1 (stereo partly drawn) on IRAK4 (Homo sapiens) and write it down.
8.5
